Where do the numbers come from? From ChEMBL document CHEMBL1961873.

Property: inhibition; scope: individual compounds
# TESTED_SYSTEM: Non-receptor tyrosine-protein kinase TNK1 (Homo sapiens);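 further: reported values are mean inhibition figures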
# TEST_CONDITIONS: at 0.1 µM

# CPD_SMILES, TESTED_SYSTEM, UNITS, inhibition
data = [
    ("Fc1ccc(-c2nn3ncccc3c2-c2ccnc(Nc3ccc4c(c3)OCCO4)n2)cc1", "Non-receptor tyrosine-protein kinase TNK1 (Homo sapiens)", "%", 8.48),
    ("c1ccc(-c2nc3n(c2-c2ccc4c(c2)OCO4)CCC3)nc1", "Non-receptor tyrosine-protein kinase TNK1 (Homo sapiens)", "%", 0.76),
    ("Cc1ccc(O)cc1Nc1ccnc2cc(-c3ccccn3)ccc12", "Non-receptor tyrosine-protein kinase TNK1 (Homo sapiens)", "%", 8.49),
    ("c1cc(-c2cnn3nc(N4CCOCC4)ccc23)nc(NC2CC2)n1", "Non-receptor tyrosine-protein kinase TNK1 (Homo sapiens)", "%", 4.07),
    ("CS(=O)(=O)CCNCc1coc(-c2ccc3ncnc(Nc4ccc(OCc5ccccc5)cc4)c3c2)c1", "Non-receptor tyrosine-protein kinase TNK1 (Homo sapiens)", "%", 4.53),
    ("Nc1nc(-c2ccc(F)cc2)c(-c2ccc3ncccc3n2)s1", "Non-receptor tyrosine-protein kinase TNK1 (Homo sapiens)", "%", 4.65),
    ("CN(C)CCOc1ccc(-c2nc(-c3ccncc3)c(-c3ccc4c(c3)CC/C4=N\\O)[nH]2)cc1", "Non-receptor tyrosine-protein kinase TNK1 (Homo sapiens)", "%", 2.5),
    ("COc1cc2ncn(-c3cc(OCc4ccccc4C(F)(F)F)c(C(=O)N(C)C)s3)c2cc1OC", "Non-receptor tyrosine-protein kinase TNK1 (Homo sapiens)", "%", 8.67),
    ("c1ccc(COc2ccc(Nc3ncnc4ccc(-c5ccco5)cc34)cc2)cc1", "Non-receptor tyrosine-protein kinase TNK1 (Homo sapiens)", "%", 1.53),
    ("CN1CCC(n2cnc(-c3ccc(F)cc3)c2-c2ccnc(N)n2)CC1", "Non-receptor tyrosine-protein kinase TNK1 (Homo sapiens)", "%", 1.5),
]

----------
# TESTED_SYSTEM: Mitogen-activated protein kinase 11 (Homo sapiens) (UniProt Q15759);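 further: reported values are averaged (mean) percent inhibition of p38beta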
# Sequence (Q15759 whole entry): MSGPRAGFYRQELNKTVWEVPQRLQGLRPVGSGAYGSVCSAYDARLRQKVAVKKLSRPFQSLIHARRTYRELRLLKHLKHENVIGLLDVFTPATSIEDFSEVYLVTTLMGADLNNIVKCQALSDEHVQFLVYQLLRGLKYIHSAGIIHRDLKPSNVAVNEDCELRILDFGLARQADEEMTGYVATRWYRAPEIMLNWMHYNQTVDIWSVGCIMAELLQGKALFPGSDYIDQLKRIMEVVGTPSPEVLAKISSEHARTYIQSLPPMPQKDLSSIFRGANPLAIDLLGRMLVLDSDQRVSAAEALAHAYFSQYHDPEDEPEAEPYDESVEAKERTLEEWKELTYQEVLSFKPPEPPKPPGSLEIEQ
# TEST_CONDITIONS: at 0.1 µM
READOUT_NAME: inhibition (%)

# COMPOUND, READOUT_NAME, UNITS, MEASURED_NUMBER
records = [
    ("COC(=O)Nc1nc2ccc(S(=O)(=O)c3ccc(NC(=O)Nc4cc(C(F)(F)F)ccc4F)cc3)cc2[nH]1", "inhibition", "%", 8.26),
    ("NS(=O)(=O)c1ccc(Nc2ncc(-c3ccccc3)o2)cc1", "inhibition", "%", 6.06),
    ("COc1ccc(-c2cc(-c3c[nH]nc3-c3ccccn3)ccn2)cc1", "inhibition", "%", 4.7),
    ("CC1=C(C(=O)Nc2cc(Cl)c3[nH]ncc3c2)C(c2ccc(C(F)(F)F)cc2)CC(=O)N1 (centres undefined)", "inhibition", "%", 1.37),
    ("CCn1cc(-c2ccnc3[nH]ccc23)c(-c2cccc(NC(=O)Nc3ccc(OCc4ccccc4)cc3)c2)n1", "inhibition", "%", 5.07),
    ("NC(=O)c1sc(-n2cnc3ccc(C(F)(F)F)cc32)cc1OCc1ccccc1Br", "inhibition", "%", 2.71),
    ("Fc1ccc(-c2nn3ncccc3c2-c2ccnc(Nc3ccc4c(c3)OCCO4)n2)cc1", "inhibition", "%", 48.6),
    ("N#Cc1c(NC(=O)CN2CCOCC2)sc2c1CCCC2", "inhibition", "%", 1.86),
    ("CNC(=O)c1cccc(C#Cc2cncnc2Nc2ccc(OCc3cccc(F)c3)c(Cl)c2)c1", "inhibition", "%", 1.64),
    ("[O-][S+]1CCN(Cc2ccc(-c3ccc4ncnc(Nc5ccc(OCc6cccc(F)c6)c(Cl)c5)c4c3)o2)CC1", "inhibition", "%", 7.73),
    ("NS(=O)(=O)c1ccc(N/N=C2\\C(=O)Nc3ccc4ncccc4c32)cc1", "inhibition", "%", 7.81),
    ("CCN(CC)S(=O)(=O)c1ccc(OC)c(Nc2ncc(-c3ccccc3)o2)c1", "inhibition", "%", 3.74),
    ("O=C(O[C@H]1CN[C@H](C#Cc2cc3ncnc(Nc4ccc(Cc5ccccc5)cc4)c3s2)C1)N1CCOCC1", "inhibition", "%", 0.92),
    ("Nc1nc(-c2cccc(Cl)c2)c(-c2ccc3ncccc3n2)s1", "inhibition", "%", 5.89),
    ("CN1CCC(n2cnc(-c3ccc(F)cc3)c2-c2ccnc(N)n2)CC1", "inhibition", "%", 5.11),
    ("Fc1ccc(-c2cc(-c3c[nH]nc3-c3ccccn3)ccn2)cc1", "inhibition", "%", 5.12),
    ("COc1cc2ncn(-c3cc(OCc4ccccc4C(F)(F)F)c(C(=O)N(C)C)s3)c2cc1OC", "inhibition", "%", -4.05),
    ("CCNC(=O)O[C@H]1CN[C@H](C#Cc2cc3ncnc(Nc4ccc(OCc5cccc(F)c5)c(Cl)c4)c3s2)C1", "inhibition", "%", 4.81),
    ("COC(=O)c1sc(-n2cnc3cc(OC)c(OC)cc32)cc1OCc1ccccc1C(F)(F)F", "inhibition", "%", 6.02),
    ("CC(C)COC(=O)c1ccc2c(c1)/C(=C/Nc1ccc(S(N)(=O)=O)cc1)C(=O)N2", "inhibition", "%", -0.49),
    ("Clc1ccc(-c2nn3ncccc3c2-c2ccnc(Nc3ccccc3)n2)cc1", "inhibition", "%", 13.1),
    ("COc1ccc2[nH]c3c4[nH]c5ccc(OC)cc5c4c4c(c3c2c1)C(=O)NC4=O", "inhibition", "%", 3.15),
    ("CCCN1CCC(c2ccc(Nc3nc(Nc4cc(F)ccc4C(N)=O)c4cc[nH]c4n3)c(OC)c2)CC1", "inhibition", "%", 6.28),
    ("O=C(Nc1n[nH]c2cc(-c3ccc(F)cc3)ccc12)C1CC1", "inhibition", "%", 3.42),
    ("CCc1nn2ncccc2c1-c1ccnc(NC2CC2)n1", "inhibition", "%", 5.64),
    ("FC(F)(F)c1cccc(-c2nn3ncccc3c2-c2ccnc(Nc3ccc4c(c3)OCCO4)n2)c1", "inhibition", "%", 14.1),
    ("COc1cc(N2CCN(C(C)C)CC2)ccc1Nc1nc(Nc2ccc(F)cc2C(N)=O)c2cc[nH]c2n1", "inhibition", "%", 1.51),
    ("c1ccc(-c2nc3n(c2-c2ccc4c(c2)OCO4)CCC3)nc1", "inhibition", "%", 0.27),
    ("Fc1cccc(COc2ccc(Nc3ncnc4sc(-c5ccco5)cc34)cc2Cl)c1", "inhibition", "%", 4.57),
    ("N#Cc1c(NC(=O)c2ccc(F)cc2)sc2c1CCCC2", "inhibition", "%", 1.36),
    ("COc1cc2c(cc1Nc1nc(Nc3ccsc3C(N)=O)c3cc[nH]c3n1)N(C(=O)CN(C)C)CCC2(C)C", "inhibition", "%", 5.19),
    ("COC(=O)Nc1nc2ccc(Oc3ccc(NC(=O)Nc4cccc(Cl)c4)cc3)cc2[nH]1", "inhibition", "%", 3.94),
    ("CCn1c(-c2nonc2N)nc2c(C#CC(C)(C)O)nc(OC[C@H](N)c3ccccc3)cc21", "inhibition", "%", 3.41),
    ("CCCN(CCS(C)(=O)=O)Cc1ccc(-c2ccc3ncnc(Nc4ccc(OCc5cccc(F)c5)c(Cl)c4)c3c2)o1", "inhibition", "%", 0.78),
    ("CS(=O)(=O)CCNCc1ccc(-c2ccc3ncnc(Nc4ccc(OCc5ccccc5)c(C(F)(F)F)c4)c3c2)o1", "inhibition", "%", 4.3),
    ("CCN1CCC(CC(=O)Nc2n[nH]c3nnc(-c4cccc(F)c4F)cc23)CC1", "inhibition", "%", 2.75),
    ("CNC(=O)c1cncc(/C=C/c2ccccc2Cl)c1", "inhibition", "%", 2.14),
    ("Nc1nc(-c2ccc(F)cc2)c(-c2ccc3ncccc3n2)s1", "inhibition", "%", 7.76),
    ("Cc1cccc2c1NC(=O)/C2=N\\Nc1ccc(S(N)(=O)=O)cc1", "inhibition", "%", 1.05),
]
